Target: Alpha-2 adrenergic receptor (Rattus norvegicus)
Assay: Displacement of [3H]clonidine from adrenergic alpha-2 receptor in Sprague-Dawley rat cortex
pKi: −log10 of the molar value.
pKi of 5 or higher: YES. Under 5: NO.

| compound | target_desc | group_label |
| --- | --- | --- |
| c1cc2c(s1)CCNC2 | Alpha-2 adrenergic receptor (Rattus norvegicus) | YES |
| CC1CC2SC=CC2CN1 (stereo unspecified) | Alpha-2 adrenergic receptor (Rattus norvegicus) | NO |
| Cc1cc2c(s1)CCNC2 | Alpha-2 adrenergic receptor (Rattus norvegicus) | YES |
| N#Cc1cc2c(s1)CCNC2 | Alpha-2 adrenergic receptor (Rattus norvegicus) | NO |

# input Check this compound for pKi at or above 5: FC(F)(F)C1Cc2sc3ccccc3c2CN1 (stereo unspecified)
# output NO

# input Textbook exercise: given the entry "NCc1cccs1" , state whether its pKi is greater than or equal to 5.
# output NO

# input Would you say FC(F)(F)C1CC2SC=CC2CN1 (stereo unspecified) shows pKi at minimum 5?
# output NO

# input Given the entry BrC1=CC2CNCCC2S1 (stereo unspecified) , answer whether its pKi meets or surpasses 5.
# output YES

# input Decide: is the reported value of pKi for "NCc1ccsc1" equal to or greater than 5?
# output NO

# input Determine whether measured pKi meets or exceeds 5 for "NCCc1cccs1"
# output YES
